# Subject of test: KCNQ2/3 channels (Homo sapiens, UniProt O43525+O43526)
# Protocol details: Fluorescence assay using a voltage sensitive dye (fluorimetry)
# Protocol conditions: CHO-K1 cells expressing KCNQ2/3 channels
Experimental readout: log10 EC50 (log10 of the value in µM)

| Mol smiles | Experimental readout | Experimental value |
| --- | --- | --- |
| CCOc1nc2cc(F)c(F)cc2c(OC)c1C(=O)NCc1cccc(F)c1 | log10 EC50 | -0.97 |
| COc1nc2cc(C(F)(F)F)ccc2c(C)c1C(=O)NCc1cccc(F)c1O | log10 EC50 | -0.91 |
| COc1nc2cc(C(F)(F)F)ccc2c(OC)c1C(=O)NCc1cccc(F)c1 | log10 EC50 | -0.87 |
| Cc1c(C(=O)NCc2cccc(F)c2)c(OC(C)C)nc2cc(C(F)(F)F)ccc12 | log10 EC50 | -1.06 |
| COc1nc2c(F)c(F)ccc2c(C)c1C(=O)NCc1cccc(F)c1 | log10 EC50 | -0.64 |
| COc1nc2cc(C(F)(F)F)ccc2c(C)c1C(=O)NCc1cccc(F)c1 | log10 EC50 | -1.14 |
| CC(C)Oc1nc2ccccc2c(C(F)(F)F)c1C(=O)NCc1cccc(F)c1 | log10 EC50 | -0.97 |
| COc1nc2cc(F)c(F)cc2c(C)c1C(=O)NCc1cccc(F)c1 | log10 EC50 | -0.50 |
| CCOc1nc2cc(C(F)(F)F)ccc2c(C)c1C(=O)NCc1ccc(C)c(F)c1 | log10 EC50 | -1.14 |
| COc1nc2cc(C(F)(F)F)ccc2c(OC)c1C(=O)NCc1ccc(F)cc1 | log10 EC50 | -0.97 |
| COc1ccc(F)cc1CNC(=O)c1c(OC)nc2cc(C(F)(F)F)ccc2c1C | log10 EC50 | 0.19 |
| COc1nc2cc(C(F)(F)F)ccc2c(C)c1C(=O)NCc1ccc(O)c(F)c1 | log10 EC50 | 0.31 |
| Cc1c(C(=O)NCc2cccc(F)c2)c(OCCO)nc2cc(C(F)(F)F)ccc12 | log10 EC50 | -0.41 |
| COCCOc1nc2cc(C(F)(F)F)ccc2c(C)c1C(=O)NCc1cccc(F)c1 | log10 EC50 | -1.02 |
| COc1nc2cc(C(F)(F)F)ccc2c(C)c1C(=O)NCc1ccc(C)c(F)c1 | log10 EC50 | -1.04 |
| COc1nc2cc(C(F)(F)F)ccc2c(C)c1C(=O)NCc1ccc(F)c(C)c1 | log10 EC50 | -1.21 |
| CCOc1nc2cc(C(F)(F)F)ccc2c(C)c1C(=O)NCCCC(C)(C)C | log10 EC50 | -1.30 |
| Cc1c(C(=O)NCc2cccc(F)c2)c(OCC(F)(F)F)nc2cc(C(F)(F)F)ccc12 | log10 EC50 | -1.60 |
| CCOc1nc2cc(C#N)ccc2c(C)c1C(=O)NCc1cccc(F)c1 | log10 EC50 | -1.25 |
| CCOc1nc2cc(C(F)(F)F)ccc2c(C)c1C(=O)NCc1ccc(F)cc1 | log10 EC50 | -1.41 |

* * *

# Subject of test: KCNQ2/3 channels (Homo sapiens, UniProt O43525+O43526)
# Protocol details: Fluorescence assay using a voltage sensitive dye (fluorimetry)
# Protocol conditions: CHO-K1 cells expressing KCNQ2/3 channels
In this section, each of the compounds is paired with its reported EC50.
Experimental readout: EC50 (nM)

| Compound | Unit abbreviation | Experimental value |
| --- | --- | --- |
| COc1nc2cc(C#N)ccc2c(C)c1C(=O)NCc1cccc(F)c1 [Example 37] | nM | 261 |
| COc1nc2cc(C#N)ccc2c(C)c1C(=O)NCc1ccc(F)cc1 [Example 38] | nM | 143 |
| CCOc1nc2cc(C(F)(F)F)ccc2c(C)c1C(=O)NCc1cccs1 [Example 2] | nM | 64 |
| CCOc1nc2ccccc2c(C(F)(F)F)c1C(=O)NCc1cccc(F)c1 [Example 52] | nM | 205 |
| COc1nc2cc(C(F)(F)F)ccc2c(C)c1C(=O)NCc1cc(F)ccc1O [Example 44] | nM | 79 |
| COc1nc2cc(C(F)(F)F)ccc2c(C)c1C(=O)NCc1cccc(C)c1 [Example 21] | nM | 67 |
| CCOc1nc2cc(C(F)(F)F)ccc2c(C)c1C(=O)NCc1ccc(F)c(C)c1 [Example 24] | nM | 53 |
| COc1nc2cc(F)c(F)cc2c(OC)c1C(=O)NCc1cccc(F)c1 [Example 17] | nM | 218 |
| COc1nc2cc(C(F)(F)F)ccc2c(C)c1C(=O)NCCCC(C)(C)C [Example 29] | nM | 28 |
